Every entry's value here was drawn from patent US9802899B2.

# PROTOCOL: Determination of the log P values by HPLC (formic acid method)
# Assay type: physicochemical
# EXPERIMENTAL_SETUP: reversed-phase column (C 18), acidic range (pH 3.4), 55° C.
Binary classification by log P, with 3 as an inclusive lower bound for Criterion met; all other cases are Criterion not met.

COMPOUND	ASSIGNED_CLASS
O=C(Nc1ccn(-c2ncc(F)cc2F)n1)c1c(F)cccc1Br [Compound I-1-637]	Criterion not met

**Q:** Determine whether measured log P meets or exceeds 3 for Cc1nnsc1C(=O)Nc1ccn(-c2ncc(F)cc2F)n1 [Compound I-1-160]
**A:** Criterion not met

**Q:** How about this compound: O=C(Nc1ccn(-c2c(F)cccc2F)n1)c1nccnc1C(F)(F)F [Compound I-1-99]
**A:** Criterion not met

**Q:** Now consider O=C(Nc1ccn(-c2nc(F)c(F)cc2F)n1)c1ccccc1Cl [Compound I-1-163] .
**A:** Criterion not met

**Q:** Same for O=C(Nc1ccn(-c2ncccc2F)n1)c1c(F)cccc1C(F)(F)F [Compound I-1-580]
**A:** Criterion not met
